Reported values of Δkon for individual entries
- assay-system: VEGF (R&D systems, Minneapolis, Minn.) (UniProt P15692-4 27-191, limits assumed)
- Sequence (P15692 other isoform, or with tags, fused parts or gaps limits assumed): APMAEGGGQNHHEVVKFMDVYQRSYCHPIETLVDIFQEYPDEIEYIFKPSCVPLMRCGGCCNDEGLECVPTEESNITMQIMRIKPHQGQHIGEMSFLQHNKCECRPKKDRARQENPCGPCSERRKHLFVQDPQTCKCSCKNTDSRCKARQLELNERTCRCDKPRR
- experimental-protocol: BIAcore SPR, mutant/WT

[
  {
    "binder": "95 (antibody, human IgG1, V domains shown) VH: EVQLVESGGGLVQPGGSLRLSCAASGYTFTNYGMNWVRQAPGKGLEWVGWINTYTGEPTYAADFKRRFTFSLDTSKSTAYLQMNSLRAEDTAVYYCAKYPDYYGSSHWYFDVWGQGTLVTVSS VL: DIQMTQSPSSLSASVGDRVTITCSASQDISNYLNWYQQKPGKAPKVLIYFTSSLHSGVPSRFSGSGSGTDFTLTISSLQPEDFATYYCQQYSTVPWTFGQGTKVEIKR",
    "Δkon": "1.5 fold"
  },
  {
    "binder": "86 (antibody, human IgG1, V domains shown) VH: EVQLVESGGGLVQPGGSLRLSCAASGYTFTFYGMNWVRQAPGKGLEWVGWINTYTGEPTYAADFKRRFTFSLDTSKSTAYLQMNSLRAEDTAVYYCAKYPDYEGSSHWYFDVWGQGTLVTVSS VL: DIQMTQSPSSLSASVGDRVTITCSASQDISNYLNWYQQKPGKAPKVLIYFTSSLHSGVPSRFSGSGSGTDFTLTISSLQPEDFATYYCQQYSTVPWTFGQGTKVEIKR",
    "Δkon": "7.4 fold"
  },
  {
    "binder": "87 (antibody, human IgG1, V domains shown) VH: EVQLVESGGGLVQPGGSLRLSCAASGYTFTFYGMNWVRQAPGKGLEWVGWINTYTGEPTYAADFKRRFTFSLDTSKSTAYLQMNSLRAEDTAVYYCAKYPEYDGGSHWYFDVWGQGTLVTVSS VL: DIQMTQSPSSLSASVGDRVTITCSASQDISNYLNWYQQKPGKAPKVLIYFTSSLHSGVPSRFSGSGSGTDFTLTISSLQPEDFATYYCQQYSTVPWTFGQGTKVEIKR",
    "Δkon": "4.6 fold"
  }
]
